# assay_remarks: Inhibition of HIV 3B integrase infected in human MT4 cells assessed as reduction in viral replication after 5 days by CellTiter-Glo assay
# Type: cell-based
# applied_conditions: Human immunodeficiency virus 1, 3B, MT4, 120 h
Rule: EC50 below 3 nM gives label 1, anything at or above gives label 0.

Observe how each entry below is paired with its result.
# smi, label
data = [
    ("O=C(NCc1ccc(F)c(Cl)c1F)c1cn2c(c(O)c1=O)C(=O)N1CC=CC[C@]13CCOC[C@H]23", "label 0"),
    ("COc1c2n(cc(C(=O)NCc3ccc(F)c(Cl)c3F)c1=O)[C@H]1CCC[C@]13OCCN3C2=O", "label 1"),
]

Shift focus to the following entry.
Input: Find out if reported EC50 for "C[C@H]1CCO[C@]23CCC[C@H]2n2cc(C(=O)NCc4ccc(F)c(Cl)c4F)c(=O)c(O)c2C(=O)N13" is less than 3 nM
Output: label 0
